Reference source: PubChem BioAssay AID1850

- MEASUREMENT DESCRIPTION: PhoP regulon inhibitors, Salmonella typhi PhoP promoter GFP reporter, confirmatory (AID 1850);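 also: 0% = induced wells with vehicle and 100% = uninduced wells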
- RECORDED CONDITIONS: fluorescence, 4 h, at 50 µM, active compounds read high
The whole screen tested about 310,000 compounds, of which about 1,000 (0.32%) were called active. Only a sample is shown. Potency and affinity values are given separately.
MEASURE NAME: inhibition (%)
All answers are understood in %, so give the number only.

Illustrative cases are given below, each with its answer.
- COMPOUND: "O=C(Nc1ccccc1)Nc1ccc(F)cc1F"
  QUANTITATIVE READOUT: -5.6
- COMPOUND: "COc1ccc(NC(=O)NCc2cccnc2)c(OC)c1"
  QUANTITATIVE READOUT: -7.58
- COMPOUND: "O=C(CSc1ccc2c(c1)OCCO2)NCc1ccccc1"
  QUANTITATIVE READOUT: 6.58

Sample O=C(NCC(=O)N1CCCCC1)c1ccc(Br)o1 — what was its inhibition?
20.3

Sample c1ccc(N2CCN(c3nc(NCc4ccco4)c4ccccc4n3)CC2)cc1 — what was its inhibition?
13.6

====

Measured inhibition, listed per entry.
- MEASUREMENT DESCRIPTION: PhoP regulon inhibitors, Salmonella typhi PhoP promoter GFP reporter, confirmatory (AID 1850);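 also: 0% = induced wells with vehicle and 100% = uninduced wells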
- RECORDED CONDITIONS: fluorescence, 4 h, at 50 µM, active compounds read high
The campaign covered roughly 310,000 compounds. About 1,000 (0.32%) were called active. Only a sample is shown. Entries with a potency or affinity are not part of this list.
All answers are understood in %, so give the number only.

- COMPOUND: "CCCCOc1ccc(C)cc1CN(CCO)CCO"
  VALUE UNITS: "%"
  inhibition: -0.81
- COMPOUND: "Oc1c(C(Nc2ccccn2)c2ccccn2)ccc2cccnc12 (configuration not stated)"
  VALUE UNITS: "%"
  inhibition: 0.58

Sample N=C(N)N=Nc1c(O)[nH]c2ccc(Br)cc12 — what was its inhibition?
-13.7

Sample CCn1cc(CN2CCC(n3nccc3NC(=O)C3CCCC3)CC2)c(C)n1 — what was its inhibition?
-10.6

Sample CC1CCCN(C2=NC(=O)/C(=C/c3cn(-c4ccccc4)nc3-c3cccc(S(=O)(=O)N(C)C)c3)S2)C1 (configuration not stated) — what was its inhibition?
-7.62

Sample Cc1cc(C(=O)N/N=C/c2ccc(Br)o2)n[nH]1 — what was its inhibition?
-0.33

Sample COc1ccc(C2CC(=O)c3c(ccc4ccccc34)N2)cc1OC (configuration not stated) — what was its inhibition?
2.44

====

- MEASUREMENT DESCRIPTION: PhoP regulon inhibitors, Salmonella typhi PhoP promoter GFP reporter, confirmatory (AID 1850);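 also: 0% = induced wells with vehicle and 100% = uninduced wells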
- RECORDED CONDITIONS: fluorescence, 4 h, at 50 µM, active compounds read high
Among all 310,000 compounds or so, about 1,000 (0.32%) were called active. The list is a sample of the results. Potency and affinity values are given separately.
Measured inhibition, listed per entry.
All answers are understood in %, so give the number only.

Illustrative cases are given below, each with its answer.
- COMPOUND: "COc1ccc(OC)c(Nc2c3ccccc3nc3ccccc23)c1"
  inhibition, %: -13.7
- COMPOUND: "CCc1cccc(C)c1NC(=O)c1cccnc1"
  inhibition, %: -4.39
- COMPOUND: "CCCC(=O)N1CCN(c2nc3ccccc3s2)CC1"
  inhibition, %: -3.88
- COMPOUND: "Cc1ccc(O)c(Nc2nc(-c3ccccc3)nc3ccccc23)c1"
  inhibition, %: 8.76
- COMPOUND: "O=C(C[n+]1cccc(CNC(=O)c2ccc(OC(F)F)cc2)c1)Nc1ccc(F)cc1"
  inhibition, %: -3.3
- COMPOUND: "CCN(CC)CCn1c(=N)n(CC(O)COc2ccccc2)c2ccccc21 (configuration not stated)"
  inhibition, %: 15.1
- COMPOUND: "COc1cc(Nc2c3ccccc3nc3ccccc23)cc(OC)c1OC"
  inhibition, %: -7.36
- COMPOUND: "COc1ccc(OCC(O)Cn2c(=N)n(CCN3CCCCC3)c3ccccc32)cc1 (configuration not stated)"
  inhibition, %: 20.8

Sample O=C(c1nc2ccccn2c1CN1CCN(c2ccccc2O)CC1)N1CCCC1 — what was its inhibition?
-2.41

Sample COCCn1c(=S)[nH]c2cc(C(=O)NCCCN3CCOCC3)ccc2c1=O — what was its inhibition?
-1.91

Sample Cc1cc(OCc2nc(-c3cccnc3)no2)c(C)cc1Br — what was its inhibition?
-4.41

Sample CCCn1c(=N)n(CC(O)COc2cccc(C)c2)c2ccccc21 (configuration not stated) — what was its inhibition?
3.8

Sample CCOc1cccc(-c2c(C(=O)N/N=C(\C)c3ccncc3)nnn2-c2nonc2N)c1 — what was its inhibition?
0

Sample CCCCCOC(=O)CSc1nc2c(c(=O)[nH]c(=O)n2C)n1CCc1ccccc1 — what was its inhibition?
2.47

Sample CCCCCCCC[n+]1cccc(C(=O)N(CC)CC)c1 — what was its inhibition?
-7.45

Sample CCCCOc1ccc(Cc2cnc(N)nc2N)cc1 — what was its inhibition?
-18.3

Sample O=C(Nc1cccc(S(=O)(=O)N2CCOCC2)c1)c1cnccn1 — what was its inhibition?
-6.33

Sample CSC1=NC(C)(C)C=C(/C=C/c2ccc(Cl)cc2Cl)N1 — what was its inhibition?
4.11

Sample Cc1cc2oc(C(=O)NCc3ccccc3)cc(=O)c2cc1C — what was its inhibition?
-12.8

Sample CCCCCCCCCC[n+]1cccc(C(=O)N(CC)CC)c1 — what was its inhibition?
8.08

Sample CC1(C)N=C(N)NC(Nc2ccccc2)=N1 — what was its inhibition?
3.29

Sample CN(C)C(=O)C[n+]1ccc(/C=N/O)cc1 — what was its inhibition?
-5.57

Sample Cc1ccccc1NC1=NC(C)(C)N=C(N)N1 — what was its inhibition?
2.17

Sample O=C(Nc1cc2c3c(c1)CC(=O)N3CCC2)c1cccc(F)c1 — what was its inhibition?
6.53

Sample COc1cccc(-c2ccc3nnc(SCC(=O)N4CCCC4)n3n2)c1 — what was its inhibition?
1.13

====

- MEASUREMENT DESCRIPTION: PhoP regulon inhibitors, Salmonella typhi PhoP promoter GFP reporter, confirmatory (AID 1850);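 also: 0% = induced wells with vehicle and 100% = uninduced wells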
- RECORDED CONDITIONS: fluorescence, 4 h, at 50 µM, active compounds read high
The campaign covered roughly 310,000 compounds. About 1,000 (0.32%) were called active. These entries were drawn from the full list. Results with a measured potency or affinity are listed apart.
Measured inhibition, listed per entry.

Sample CC(C(=O)c1ccc(Br)cc1)[n+]1cccc(NC(=O)c2ccccc2)c1 (stereo not drawn) — what was its inhibition?
4.99% (inactive)

Sample Cc1ccc(CN2CC(C(=O)Nc3cc(S(C)(=O)=O)ccc3Cl)CC2=O)cc1 (stereo not drawn) — what was its inhibition?
-8.57% (inactive)

Sample COC(=O)c1ccc(CNCC(O)COc2ccc(-c3ccccc3)cc2)cc1 (stereo not drawn) — what was its inhibition?
10.8% (inactive)

Sample Cc1ccc(N2C(=O)C3C4C=CC(CNC(=S)N5CCN(c6ccccn6)CC5)(O4)C3C2=O)cc1 (stereo not drawn) — what was its inhibition?
5.6% (inactive)

Sample COc1ccc(Cc2noc(CN3CCCC(C(=O)c4cccs4)C3)n2)cc1OC (stereo not drawn) — what was its inhibition?
-18.4% (inactive)

Sample O=C1c2ccccc2C(=O)N1CCc1ccccc1 — what was its inhibition?
2.79% (inactive)

====

- MEASUREMENT DESCRIPTION: PhoP regulon inhibitors, Salmonella typhi PhoP promoter GFP reporter, confirmatory (AID 1850);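 also: 0% = induced wells with vehicle and 100% = uninduced wells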
- RECORDED CONDITIONS: fluorescence, 4 h, at 50 µM, active compounds read high
Out of some 310,000 compounds screened, about 1,000 (0.32%) were called active. Only a sample is shown. Potency and affinity values are given separately.
MEASURE NAME: inhibition (%)
All answers are understood in %, so give the number only.

Illustrative cases are given below, each with its answer.
- COMPOUND: "COc1ccc(-n2nc(C)cc2N)cc1"
  VALUE UNITS: "%"
  inhibition: 4.84
- COMPOUND: "Nc1ncc(-c2ccc([N+](=O)[O-])cc2)cn1"
  VALUE UNITS: "%"
  inhibition: 4.2
- COMPOUND: "O=C(NC1CCCC1)C(c1ccccn1)N(C(=O)c1csnn1)c1ccccc1Br (stereo not given)"
  VALUE UNITS: "%"
  inhibition: 5.15
- COMPOUND: "Nc1ncncc1-c1ccc2ccccc2c1"
  VALUE UNITS: "%"
  inhibition: -7.33
- COMPOUND: "Fc1ccc(-c2nc3ccccc3[nH]2)cc1"
  VALUE UNITS: "%"
  inhibition: -1.08

Sample CN(C)[C@@H]1C(=O)C(C(N)=O)=C(O)[C@@]2(O)C(=O)C3=C(O)c4c(O)cccc4[C@@](C)(O)[C@H]3C[C@@H]12 — what was its inhibition?
-2.82

Sample Cc1ccccc1C(=O)NNC(=S)NC(=O)c1ccccc1 — what was its inhibition?
-2

Sample O=C(NCC1CC1)c1cc(-c2ccccc2)nn1CC1CC(c2cccc([N+](=O)[O-])c2)=NO1 (stereo not given) — what was its inhibition?
4.4

Sample O=C(CN1C2=NCCCN2c2ccccc21)c1ccc2c(c1)OCO2 — what was its inhibition?
28.1

Sample O=C(CN1C2=NCCN2c2ccccc21)c1ccc(Br)s1 — what was its inhibition?
13.2

Sample O=C(NCc1ccc2c(c1)OCO2)c1cccc([N+](=O)[O-])c1 — what was its inhibition?
-1.83

Sample CN(C)[C@@H]1C(=O)C(C(N)=O)=C(O)[C@@]2(O)C(=O)C3=C(O)c4c(O)ccc(Cl)c4[C@@](C)(O)[C@H]3C[C@@H]12 — what was its inhibition?
4.13

Sample CC(C)n1c(CN2CCN(C)CC2)nc2c1c(=O)n(C)c(=O)n2C — what was its inhibition?
2.65
